# System: THP-1
# Measurement Notes: Cell growth inhibition assay (CellTiter-Glo), THP-1
# Type: cell-based, human
# Protocol Conditions: THP-1 cells, 4 days, total growth inhibition
Quick reference: THP-1 TGI of the listed items.
Use µM as the unit, but write only the number.

Some compounds with recorded THP-1 TGI:
[
  {
    "Compound": "Cc1cc(N2C(=O)c3c(C4CC4)cn(C)c3[C@H]2c2ccc(Cl)cc2)cn2c(C)nnc12",
    "THP-1 TGI, µM": 0.01091
  },
  {
    "Compound": "Cc1cc(N2C(=O)c3c(C4CNC4)cn(C)c3C2c2ccc(Cl)cc2)nc2c1nnn2C (stereo not shown)",
    "THP-1 TGI, µM": 0.031
  },
  {
    "Compound": "Cc1cc(N2C(=O)c3c(NC(=O)CCN(C)C)cn(C)c3C2c2ccc(Cl)cc2)nn2c(C(F)F)nnc12 (stereo not shown)",
    "THP-1 TGI, µM": 0.2935
  }
]

Then there is this compound:
Q: Can you share its THP-1 TGI? I mean this compound: COc1ncccc1-c1cc2c(n1C)C(c1ccc(Cl)cc1)N(c1cc(C)c3nnc(C)n3c1)C2=O (stereo not shown) [Example 30]
A: 0.03905
